All values here come from PubChem BioAssay AID504339.

molecular target: Lysine-specific demethylase 4A (Homo sapiens) (UniProt O75164); assay: qHTS Assay for Inhibitors of JMJD2A-Tudor Domain; settings: AlphaScreen JMJD2A-Tudor / H3K4me3 peptide binding; series mostly up to 114 µM; further: nearly all actives have a fitted effect of over 50% in size; further: potency means the concentration at half of the fitted maximal effect
Sequence (O75164 whole entry, looked up, the tested form may be a part): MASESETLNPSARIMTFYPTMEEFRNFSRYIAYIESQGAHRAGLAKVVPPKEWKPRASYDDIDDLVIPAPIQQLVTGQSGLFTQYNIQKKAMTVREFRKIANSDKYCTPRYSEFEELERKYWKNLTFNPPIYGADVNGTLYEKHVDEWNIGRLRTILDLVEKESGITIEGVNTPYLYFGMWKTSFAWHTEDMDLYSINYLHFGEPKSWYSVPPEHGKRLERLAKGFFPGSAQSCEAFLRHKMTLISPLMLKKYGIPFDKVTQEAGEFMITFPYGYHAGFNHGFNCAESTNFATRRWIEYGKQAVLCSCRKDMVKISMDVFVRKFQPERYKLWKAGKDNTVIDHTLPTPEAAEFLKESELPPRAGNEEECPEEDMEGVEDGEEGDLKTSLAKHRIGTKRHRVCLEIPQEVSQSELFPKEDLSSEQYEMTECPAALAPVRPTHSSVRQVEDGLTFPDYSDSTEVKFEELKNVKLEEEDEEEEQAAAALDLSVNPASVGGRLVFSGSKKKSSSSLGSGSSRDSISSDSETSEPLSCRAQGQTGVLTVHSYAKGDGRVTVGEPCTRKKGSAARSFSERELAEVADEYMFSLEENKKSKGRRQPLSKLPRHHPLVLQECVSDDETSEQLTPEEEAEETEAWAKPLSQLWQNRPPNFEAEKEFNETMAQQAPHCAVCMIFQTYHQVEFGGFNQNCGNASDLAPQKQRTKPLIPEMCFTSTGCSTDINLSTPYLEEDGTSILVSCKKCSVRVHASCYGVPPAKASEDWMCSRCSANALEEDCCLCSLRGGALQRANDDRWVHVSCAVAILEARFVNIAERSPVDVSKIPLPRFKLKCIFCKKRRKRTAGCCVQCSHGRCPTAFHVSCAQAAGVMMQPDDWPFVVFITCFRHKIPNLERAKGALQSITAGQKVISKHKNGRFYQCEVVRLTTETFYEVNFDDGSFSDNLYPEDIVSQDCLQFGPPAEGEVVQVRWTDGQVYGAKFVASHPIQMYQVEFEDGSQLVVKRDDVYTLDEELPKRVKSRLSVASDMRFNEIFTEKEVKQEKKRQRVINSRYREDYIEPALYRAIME
The whole screen tested about 390,000 compounds, of which about 17,000 (4.4%) were called active. About 8% were inconclusive and are not listed. The sample holds actives, similar compounds and a random draw of the others, so the mix is not that of the screen.
measured.property: Potency

Some solved entries appear below for comparison.
In [3]: df
Out[3]:
                                   compound    result
0  O=C(NCCc1ccc(Cl)cc1)c1ccc2c(c1)N(Cc1ccc(F)cc1)C(=O)CS2  inactive
1  CCOC(=O)c1ccc(CN(Cc2ccccc2)S(=O)(=O)c2ccc(Cl)cc2)cc1  inactive
2  CC(=O)N1CCCc2cc(S(=O)(=O)Nc3ccc(Cl)cc3F)ccc21  inactive
3  O=C(Cn1c(=O)n(Cc2cccs2)c(=O)c2cccnc21)Nc1ccc(F)cc1  inactive
4  CC(C)S(=O)(=O)c1oc(-c2ccc(F)cc2)nc1S(=O)(=O)c1ccc(F)cc1  inactive

Prompt: Query Potency for O=C1COc2c1ccc(O)c2O
Completion: 5.62 µM (active)

Prompt: Query Potency for CCn1c(COc2c(C)cccc2C)nnc1SCc1nc2ccccc2c(=O)[nH]1
Completion: inactive

Prompt: Query Potency for Cc1c(C(=O)Nc2cccc(Cl)c2)oc2ccc(S(=O)(=O)N3CCOCC3)cc12
Completion: inactive

Prompt: Query Potency for Cn1c(SCC(=O)N2CCCC2)nnc1-c1ccc2c(c1)OCO2
Completion: inactive

Prompt: Query Potency for CCCCc1nn2c(=O)cc(COC(=O)c3cccc(NC(=O)COc4ccccc4)c3)nc2s1
Completion: inactive

Prompt: Query Potency for COc1ccc(C)cc1-n1nnnc1SCc1nc2ccccc2c(=O)[nH]1
Completion: inactive

Prompt: Query Potency for CCOc1ccc(C2CC(=O)c3c([nH]c(C(=O)OCc4ccccc4)c3C)C2)cc1 (stereo not given)
Completion: inactive

---

target: Lysine-specific demethylase 4A (Homo sapiens) (UniProt O75164); experiment: qHTS Assay for Inhibitors of JMJD2A-Tudor Domain; settings: AlphaScreen JMJD2A-Tudor / H3K4me3 peptide binding; series mostly up to 114 µM; further: nearly all actives have a fitted effect of over 50% in size
Among all 390,000 compounds or so, about 17,000 (4.4%) were called active. Inconclusive results (about 8%) are left out. The call rests on the fitted dose curve; in most records, active means well fitted inhibition curve with a large enough effect; inconclusive means small, poorly fitted or top-dose-only effect; inactive means no such curve, though single readings can be large or run the other way. Only a selection was taken, and actives are over-represented in it overall.
Give your call using only these classes: yes (active), no (inactive)

Example cases with answers are listed next.
                                   compound  classification
0  CCCCc1nn2c(=O)cc(COC(=O)c3ccc(NC(=O)c4ccccc4C)cc3)nc2s1              no
1  COc1ccc(OC)c(NC(=O)Cn2c(=O)n(Cc3ccccc3)c(=O)c3ccccc32)c1              no
2  COc1ccc(NC(=O)CN(C)C(=O)c2cc(-c3ccc(C)o3)nc3ccccc23)cc1             yes
3  Cc1cc(C)cc(NS(=O)(=O)c2ccc3[nH]cc(C(=O)N4CCCCC4)c(=O)c3c2)c1              no
4  COc1cc(OC)c2c(c1)OC(=O)CC2c1cc(OC)c(OC)c(OC)c1 (centres undefined)              no

Prompt: What call does the record list for CCOC(=O)C1CCN(C(c2ccc(F)cc2)c2sc3nc(-c4ccco4)nn3c2O)CC1 (centres undefined) ?
Completion: no

Prompt: What call does the record list for CC(C)CNc1ncnc2c1nnn2C ?
Completion: no

Prompt: What call does the record list for Cc1nc(N2CCOCC2)c2c(C(=O)NCc3cccc(Cl)c3)c(C)oc2n1 ?
Completion: no

Prompt: What call does the record list for COc1ccccc1-n1cnc2cc(NS(=O)(=O)c3ccccc3)ccc21 ?
Completion: no

Prompt: What call does the record list for Cc1cccc(-n2c(=O)c3c(c4cc(C)ccc4n3C)n(CC(=O)Nc3ccccc3Cl)c2=O)c1 ?
Completion: no

---

molecular target: Lysine-specific demethylase 4A (Homo sapiens); experiment: qHTS Assay for Inhibitors of JMJD2A-Tudor Domain; details: AlphaScreen JMJD2A-Tudor / H3K4me3 peptide binding; series mostly up to 114 µM; further: nearly all actives have a fitted effect of over 50% in size
Out of some 390,000 compounds screened, about 17,000 (4.4%) were called active. Not shown: some 8% with an inconclusive outcome. Calls follow the shape of the dose curve; as a rule, active = well fitted inhibition curve with a large enough effect; inconclusive = small, poorly fitted or top-dose-only effect; inactive = no such curve, though single readings can be large or run the other way. The list comes from a sample in which actives are over-represented; it also holds close analogues and randomly drawn compounds.
Give your call using only these classes: active, inactive

Prompt: What call does the record list for Cc1ccc(CNC(=O)C2(C(F)(F)F)C/C(=C\Cc3ccccc3)CCCO2)o1 (configuration not stated) ?
Completion: inactive

Prompt: What call does the record list for COc1cc(Br)c(-c2sc(Nc3ccccc3)n[n+]2-c2ccccc2)cc1OC ?
Completion: inactive

Prompt: What call does the record list for CNC(=O)[C@]1(C(F)(F)F)C[C@H](CCc2ccccc2)CCCO1 ?
Completion: inactive

Prompt: What call does the record list for O=C(NCc1ccccn1)[C@]1(C(F)(F)F)C[C@H](CCc2ccccc2)CCCO1 ?
Completion: active

Prompt: What call does the record list for CC1CN(C(=O)N2CCC(C(=O)NCc3ccco3)CC2)c2cc(Cl)ccc2O1 (configuration not stated) ?
Completion: inactive

Prompt: What call does the record list for Cc1cc(C)cc(-n2ccnc2SCC(=O)Nc2nc3ccccc3s2)c1 ?
Completion: inactive

Prompt: What call does the record list for COc1ccc(-c2nc(CN3CCC(C(=O)NCCN(CC(C)C)CC(C)C)CC3)c(C)o2)cc1OC ?
Completion: inactive

---

molecular target: Lysine-specific demethylase 4A (Homo sapiens) (UniProt O75164); test: qHTS Assay for Inhibitors of JMJD2A-Tudor Domain; details: AlphaScreen JMJD2A-Tudor / H3K4me3 peptide binding; series mostly up to 114 µM; further: nearly all actives have a fitted effect of over 50% in size
The whole screen tested about 390,000 compounds, of which about 17,000 (4.4%) were called active. About 8% were inconclusive and are not listed. Calls come from the whole dose curve; as a rule, active = well fitted inhibition curve with a large enough effect; inconclusive = small, poorly fitted or top-dose-only effect; inactive = no such curve, though single readings can be large or run the other way. Many of the other results were omitted from the sample, so actives are more common in it than they were.
Give your call using only these classes: active, inactive

Example cases with answers are listed next.
>>> df
                                   compound                        measurement_target  classification
0  CC(Sc1nnc(COc2ccccc2)n1-c1ccccc1)C(=O)O (stereo not drawn)  Lysine-specific demethylase 4A (Homo sapiens) (UniProt O75164)        inactive
1  Cc1ccc(OCC(=O)OCc2cc(=O)n3nc(C4CC4)sc3n2)cc1  Lysine-specific demethylase 4A (Homo sapiens) (UniProt O75164)        inactive
2  COc1ccccc1CNC(=O)CCn1c(=O)c2ccccc2n(CC(=O)Nc2ccc(Br)cc2F)c1=O  Lysine-specific demethylase 4A (Homo sapiens) (UniProt O75164)        inactive

Prompt: What call does the record list for O=[N+]([O-])c1ccccc1/C=N/n1c(COc2ccccc2)n[nH]c1=S ?
Completion: active

---

target: Lysine-specific demethylase 4A (Homo sapiens) (UniProt O75164); test: qHTS Assay for Inhibitors of JMJD2A-Tudor Domain; settings: AlphaScreen JMJD2A-Tudor / H3K4me3 peptide binding; series mostly up to 114 µM; further: nearly all actives have a fitted effect of over 50% in size
Among all 390,000 compounds or so, about 17,000 (4.4%) were called active. About 8% were inconclusive and are not listed. The call rests on the fitted dose curve; in most records, active means well fitted inhibition curve with a large enough effect; inconclusive means small, poorly fitted or top-dose-only effect; inactive means no such curve, though single readings can be large or run the other way. The sample holds actives, similar compounds and a random draw of the others, so the mix is not that of the screen.
Give your call using only these classes: active, inactive

Example cases with answers are listed next.
>>> df
                         compound_structure  classification
0               S=c1[nH]nc(/C=C/c2ccccc2)o1        inactive
1  O=C(Nc1ccc2c(c1)OCO2)c1cc(-c2cccc(Cl)c2)on1        inactive
2  O=C(Oc1ccc([N+](=O)[O-])cc1)c1ccc2ccccc2n1          active

Prompt: What call does the record list for Brc1ccc(/C=N/N2CCN(C3c4ccccc4-c4ccccc43)CC2)s1 ?
Completion: inactive

Prompt: What call does the record list for Cc1ccc(C(=O)O)cc1-c1ccc(/C=C2\SC(=O)N(CC(=O)Nc3ccc4c(c3)OCO4)C2=O)o1 ?
Completion: active

---

target: Lysine-specific demethylase 4A (Homo sapiens) (UniProt O75164); experiment: qHTS Assay for Inhibitors of JMJD2A-Tudor Domain; conditions: AlphaScreen JMJD2A-Tudor / H3K4me3 peptide binding; series mostly up to 114 µM; further: nearly all actives have a fitted effect of over 50% in size; further: potency means the concentration at half of the fitted maximal effect
Out of some 390,000 compounds screened, about 17,000 (4.4%) were called active. Roughly 8% stayed inconclusive and do not appear here. This excerpt belongs to a sample that is enriched for actives.
measured.property: Potency

Some solved entries appear below for comparison.
>>> df
                                   compound  measured_property            result
0               O=S(=O)(NC1CC1)c1ccc(Cl)cc1            Potency          inactive
1  CCOc1ccc(N(C)Cc2cc(=O)oc3ccc(OC)cc23)cc1            Potency  14.1 µM (active)
2               O=C(COc1ccccc1Cl)N1CCCCCCC1            Potency          inactive
3  O=C(CN1C(=O)S/C(=C\c2ccccc2F)C1=O)NCCCn1ccnc1            Potency          inactive

Prompt: Query Potency for CCn1cc(C(=O)N2CCN(c3cc(C)ccc3C)CC2)c(=O)c2cc(S(=O)(=O)N(C)C3CCCCC3)ccc21
Completion: inactive

Prompt: Query Potency for CCOc1ccccc1/C=N/Nc1nc2ccccc2o1
Completion: 17.8 µM (active)

Prompt: Query Potency for CCOC(=O)c1c(C)[nH]c(C)c1S(=O)(=O)NCC(=O)NCc1cccc(C)c1
Completion: inactive

Prompt: Query Potency for NC(=O)CSc1nc2c(oc3ccccc32)c(=O)n1Cc1ccccc1
Completion: inactive

Prompt: Query Potency for CC(NC(=O)c1cc(Sc2ccc(F)cc2F)nc2ccccc12)c1ccccc1 (stereo not given)
Completion: inactive
